# Measured On: human cannabinoid receptor 1 (huCB1), full length, expressed on cells (human, UniProt P21554 1-472)
# Sequence (P21554 whole entry): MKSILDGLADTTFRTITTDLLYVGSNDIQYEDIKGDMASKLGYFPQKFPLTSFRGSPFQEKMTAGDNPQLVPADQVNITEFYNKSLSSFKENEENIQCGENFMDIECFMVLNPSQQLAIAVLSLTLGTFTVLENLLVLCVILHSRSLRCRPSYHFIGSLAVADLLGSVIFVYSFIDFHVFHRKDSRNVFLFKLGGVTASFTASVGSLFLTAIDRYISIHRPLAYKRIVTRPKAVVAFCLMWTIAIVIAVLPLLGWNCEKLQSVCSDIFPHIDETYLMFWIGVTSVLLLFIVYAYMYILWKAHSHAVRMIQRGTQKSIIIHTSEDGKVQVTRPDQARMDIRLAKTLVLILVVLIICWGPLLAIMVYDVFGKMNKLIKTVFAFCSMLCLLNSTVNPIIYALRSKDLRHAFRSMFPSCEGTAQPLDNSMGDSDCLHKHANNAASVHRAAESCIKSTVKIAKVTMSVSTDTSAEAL
# Method Summary: cell-based or functional assay
# maps each entry to its n = 1 IC50, -fold vs Rimo
Assay Readout: n = 1 IC50, -fold vs Rimo

binder="LIBC527814-1 (antibody, V domains shown, Expressed as IgG1 SEFL2 mAb) VH: QVQLQESGPGLVKPSQTLSLTCTVSGGSIRRGGDYWGWIRQHPGKGLEWIGHVYQTGSTKYNPSFKDRATISVNTYKNQFSLKLSSVTAADTAVYYCARNYDTLTGYSYYYYGMDVWGQGTTVTVSS VL: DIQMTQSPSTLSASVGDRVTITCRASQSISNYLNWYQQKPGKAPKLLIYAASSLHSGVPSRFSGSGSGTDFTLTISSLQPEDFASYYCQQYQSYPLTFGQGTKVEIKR" observed_value="1.12 fold vs Rimonabant"
binder="LIBC527869-1 (antibody, V domains shown) VH: QVQLQESGPGLVKPSQTLSLTCTVSGGNIRRGGDYWAWIRQHPGKGLEWIGHIYHTGKTNYNPSFKGRATISVKTYKNQFSLKLSSVTAADTAVYYCARNYDTLSGNSYYYYGMDVWGQGTTVTVSS VL: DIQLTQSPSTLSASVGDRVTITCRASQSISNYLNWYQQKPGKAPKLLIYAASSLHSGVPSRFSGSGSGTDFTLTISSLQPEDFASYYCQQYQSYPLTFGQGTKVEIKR" observed_value="13.7 fold vs Rimonabant"
binder="LIBC523603-1 (antibody, V domains shown) VH: QVQLQESGPGLVKPSQTLSLTCTVSGGSIRRGGDYWAWIRQHPGKGLEWIGHVYQSGQTAYNPNFENRATISVNTYKNQFSLKLSSVTAADTAVYYCARDYDAVSGYSYYYYGMDVWGQGTTVTVSS VL: DIVMTQSPLSLPVTPGEPASISCRSSQSLLSSYGNNYVDWYLQKPGQSPQLLIYQGSNRASGVPDRFSGSGSGTDFTLKISRVEAEDVGVYYCRQAVGLPRTFGQGTKVEIKR" observed_value="1.73 fold vs Rimonabant"
